Data provenance is ChEMBL document CHEMBL1944612.

Test: Growth inhibition of human QSG7701 cells at 50 uM after 48 hrs by MTT assay
Settings: read-out: GI
// reported inhibition at 48 h, 50 µM per item

# molecule, inhibition at 48 h, 50 µM / %
rows = [
    ("CCCCCCCC(=O)OC[C@H]1O[C@@H](O[C@H]2CC[C@]3(C)[C@H]4C[C@@H](OC(=O)CCCCCCC)[C@@H]5[C@@H]([C@@](C)(O)CCC=C(C)C)CC[C@@]5(C)[C@]4(C)CC[C@H]3C2(C)C)[C@H](O)[C@@H](O)[C@@H]1O", 18),
    ("CC(C)=CCC[C@](C)(O)[C@H]1CC[C@]2(C)[C@@H]1[C@H](O)C[C@@H]1[C@@]3(C)CC[C@H](O[C@@H]4O[C@H](CO)[C@@H](O)[C@H](O)[C@H]4O)C(C)(C)[C@@H]3CC[C@]12C [GINSENOSIDE RH2]", 83),
]
